compounds and their reported microsomal CLint at 1 µM
- Assay Comment: Metabolic stability in liver microsomes (intrinsic clearance)
- Type: in vitro ADME
- Details: mouse, microsomes, pH 7.4, mouse liver microsomes; read-out: Metabolic Stability (liver microsome intrinsic clearance) Clearance (mouse, μl/min./mg protein)

CCc1nc2ncc(C)cn2c1C(=O)NCc1ccc(-c2nc3n(n2)CCC(C(F)(F)F)C3)c(C)n1 (stereo not shown); < 7.7 µL/min/mg
CCc1nc2ncc(C)cn2c1C(=O)NCc1ccc(-c2nc3n(n2)CCC(C(F)(F)F)C3)c(F)c1 (stereo not shown) [Compound 22ab]; 13 µL/min/mg
CCc1nc2nc(N)c(C)cn2c1C(=O)NCc1ccc(-c2nc3n(n2)CCC(C(F)(F)F)C3)cc1 (stereo not shown) [Compound 12ab]; < 7.7 µL/min/mg

Look up and report measured microsomal CLint at 1 µM for this entry: CCc1nc2ncccn2c1C(=O)NCc1ccc(-c2cn3c(n2)CC(C(F)(F)F)CC3)c(F)c1 (stereo not shown)
< 7.7 µL/min/mg
